Where do these numbers come from? They come from patent US20250250357A1.

- System Name: T1, human MSLN-hFc protein (Acro, Cat. No. MSN-H5253) (human, UniProt Q13421 296-580)
- T1 construct: the method names the coated protein as human MSLN-hFc (Acro); also called human MSLN full-length protein
- T1 sequence (Q13421 other isoform, or with tags, fused parts or gaps limits assumed): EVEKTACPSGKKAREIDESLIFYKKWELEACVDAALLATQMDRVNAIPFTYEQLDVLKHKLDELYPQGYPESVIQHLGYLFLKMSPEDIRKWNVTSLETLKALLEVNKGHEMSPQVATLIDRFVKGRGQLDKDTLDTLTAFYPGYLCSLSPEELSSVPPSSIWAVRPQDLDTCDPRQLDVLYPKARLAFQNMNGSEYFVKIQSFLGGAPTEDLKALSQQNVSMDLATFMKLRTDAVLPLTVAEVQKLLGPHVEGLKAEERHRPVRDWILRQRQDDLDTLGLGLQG
- Test Summary: ELISA on coated antigen, antibody 0.01 nM
Assay Endpoint: OD450 (OD450)
Answers are plain numbers, in OD450.

1) F7.44.20-VL-VH (scFv, not shown: small tags and cut ends, also called S009-F7.44.20 parental variable regions, VL-VH order) scFv: QIVLTQSPALMSASPGEKVTLTCSASSSVISSYLSWYQQKPGSSPKLLIYRTSNLASGVPARFSGSGSGTSYSLTISSMEAEDAASYFCHQWSSFPYTFGGGTKLEIKGGGGSGGGGSGGGGSEVQLQQSGPELVKPGASVKIPCKASGYTFTDYNMDWVKQSHGKSLEWIGDINPSTGGTIYNQKFNGKATLTEDKSASTVYMEFRSLTSDDTAVYYCARRRIGTGYFDVWGTGTTVTVSS    0.05

Okay, next one:
[in] Fill in the blank: the reported OD450 of F7.44.20-H5 (scFv, not shown: small tags and cut ends, also called S009-F7.44.20 humanized antibody VH1a + VL1) scFv: EVQLVQSGAEVKKPGASVKVSCKASGYTFTDYNMDWVRQAPGQGLEWMGDINPSTGGTIYNQKFQGRVTMTEDKSTSTVYMELSSLRSEDTAVYYCARRRIGTGYFDVWGQGTTVTVSSGGGGSGGGGSGGGGSEIVLTQSPDFQSVTPKEKVTITCSASSSVISSYLSWYQQKPDQSPKLLIYRTSNLASGVPSRFSGSGSGTDFTLTINSLEAEDAATYYCHQWSSFPYTFGGGTKVEIK is ____.
[out] 0.05
